Target: SMARCA2 (Homo sapiens, UniProt P51531)
Sequence (P51531 whole entry): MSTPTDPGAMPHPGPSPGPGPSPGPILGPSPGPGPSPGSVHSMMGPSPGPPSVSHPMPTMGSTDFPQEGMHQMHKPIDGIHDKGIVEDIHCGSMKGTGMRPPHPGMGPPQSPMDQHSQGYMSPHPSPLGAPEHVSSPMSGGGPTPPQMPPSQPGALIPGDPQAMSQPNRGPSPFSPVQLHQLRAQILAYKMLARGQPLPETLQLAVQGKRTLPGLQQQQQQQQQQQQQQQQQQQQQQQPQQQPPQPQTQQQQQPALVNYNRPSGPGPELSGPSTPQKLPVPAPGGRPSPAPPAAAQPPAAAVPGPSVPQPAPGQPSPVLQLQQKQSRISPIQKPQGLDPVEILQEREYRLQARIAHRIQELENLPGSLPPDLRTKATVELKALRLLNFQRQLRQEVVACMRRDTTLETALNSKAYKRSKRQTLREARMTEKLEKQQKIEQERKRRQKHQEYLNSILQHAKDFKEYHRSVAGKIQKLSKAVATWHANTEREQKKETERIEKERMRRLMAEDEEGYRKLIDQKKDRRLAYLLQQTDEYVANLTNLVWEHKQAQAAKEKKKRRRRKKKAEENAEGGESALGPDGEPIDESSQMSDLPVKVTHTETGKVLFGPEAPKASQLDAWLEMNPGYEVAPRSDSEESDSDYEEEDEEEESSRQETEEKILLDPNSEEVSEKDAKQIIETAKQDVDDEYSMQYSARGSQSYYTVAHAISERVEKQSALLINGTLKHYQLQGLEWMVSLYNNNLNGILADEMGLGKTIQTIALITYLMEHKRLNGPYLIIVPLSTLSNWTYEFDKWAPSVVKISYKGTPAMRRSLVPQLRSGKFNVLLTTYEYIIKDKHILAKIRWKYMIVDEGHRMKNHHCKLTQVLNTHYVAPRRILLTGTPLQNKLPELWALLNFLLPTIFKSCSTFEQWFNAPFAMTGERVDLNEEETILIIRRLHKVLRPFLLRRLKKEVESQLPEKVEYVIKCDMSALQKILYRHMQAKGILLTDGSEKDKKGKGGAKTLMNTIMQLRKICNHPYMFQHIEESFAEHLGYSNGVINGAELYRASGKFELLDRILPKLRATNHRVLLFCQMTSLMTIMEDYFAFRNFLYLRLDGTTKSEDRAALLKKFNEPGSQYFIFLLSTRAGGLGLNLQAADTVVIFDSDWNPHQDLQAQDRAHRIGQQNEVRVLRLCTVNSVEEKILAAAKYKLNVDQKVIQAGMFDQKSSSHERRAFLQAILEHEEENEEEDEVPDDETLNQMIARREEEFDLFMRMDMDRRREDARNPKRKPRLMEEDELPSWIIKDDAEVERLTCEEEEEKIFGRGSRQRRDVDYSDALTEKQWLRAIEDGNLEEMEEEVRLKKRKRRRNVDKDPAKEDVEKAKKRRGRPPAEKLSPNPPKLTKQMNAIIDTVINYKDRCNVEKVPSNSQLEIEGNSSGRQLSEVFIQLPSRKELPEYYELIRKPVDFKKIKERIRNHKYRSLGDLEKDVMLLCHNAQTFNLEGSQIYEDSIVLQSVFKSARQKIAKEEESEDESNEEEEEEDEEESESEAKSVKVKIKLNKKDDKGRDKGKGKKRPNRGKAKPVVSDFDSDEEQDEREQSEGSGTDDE
Test: MSD SMARCA2 degradation in A549 cell line
Assay type: cell-based
Set-up: endogenous in cells
Settings: A549, A549 cells, 24 h
MEASURED_ATTRIBUTE: Dmax

{"MOLECULE": "Cc1ncsc1-c1cnc(CNC(=O)[C@@H]2C[C@@H](O)CN2C(=O)[C@@H](NC(=O)[C@H]2CC3(C2)C[C@H](N2CCC(c4ccc(N5C6CCC5CN(c5cc(-c7ccccc7O)nnc5N)C6)cc4)CC2)C3)C(C)(C)C)cn1 (stereo partly drawn)", "ENDPOINT_VALUE": "< 50%"}
{"MOLECULE": "Cc1ncsc1-c1ccc(CNC(=O)[C@@H]2C[C@@H](O)CN2C(=O)C(c2cc(OCCN3CCC(c4cnc(N5C6CCC5CN(c5cc(-c7ccccc7O)nnc5N)C6)nc4)CC3)no2)C(C)C)cc1 (stereo partly drawn)", "ENDPOINT_VALUE": "> 90%"}
{"MOLECULE": "Cc1ncsc1-c1ccc(CNC(=O)[C@@H]2C[C@@H](O)CN2C(=O)C(c2cc(N3CCC(CCCN4CCC(c5cnc(N6C7CCC6CN(c6cc(-c8ccccc8O)nnc6N)C7)nc5)CC4)CC3)no2)C(C)C)cc1 (stereo partly drawn)", "ENDPOINT_VALUE": "> 90%"}

----------
Biological target: SMARCA2 (Homo sapiens, UniProt P51531)
Test: MSD SMARCA2 degradation in A549 cell line
Format: cell-based
Design: endogenous in cells
Settings: A549 cells, 24 h, read-out: SMARCA2 MSD A549 degradation 24 h: Average external-Abs DC50
Known DC50 of a selection of compounds

{"COMPOUND": "Cc1ncsc1-c1ccc(CNC(=O)[C@@H]2C[C@@H](O)CN2C(=O)[C@@H](NC(=O)[C@H]2CCC3(CC2)C[C@H](N2CCC(c4cnc(N5C6CCC5CN(c5cc(-c7ccccc7O)nnc5N)C6)nc4)CC2)C3)C(C)(C)C)cc1 (stereo partly drawn) [I-42]", "DC50": "0.1 to 0.5 µM"}
{"COMPOUND": "Cc1ncsc1-c1ccc(CNC(=O)[C@@H]2C[C@@H](O)CN2C(=O)[C@@H](NC(=O)[C@H]2CC3(C2)C[C@H](N2CCN(c4cnc(N5C6CCC5CN(c5cc(-c7ccccc7O)nnc5N)C6)nc4)CC2)C3)C(C)(C)C)cc1 (single isomer, unassigned) [I-9]", "DC50": "0.1 to 0.5 µM"}
{"COMPOUND": "Cc1ncsc1-c1ccc(CNC(=O)[C@@H]2C[C@@H](O)CN2C(=O)C(c2cc(OCCN3CCC(O[C@H]4C[C@H](Oc5cc(N6C7CCC6CN(c6cc(-c8ccccc8O)nnc6N)C7)ccn5)C4)CC3)no2)C(C)C)cc1 (stereo partly drawn) [I-22]", "DC50": "0.501 to 1 µM"}
{"COMPOUND": "Cc1ncsc1-c1ccc(CNC(=O)[C@@H]2C[C@@H](O)CN2C(=O)[C@H](c2cc(OCCCN3CCC(c4cnc(N5C6CCC5CN(c5cc(-c7ccccc7O)nnc5N)C6)nc4)CC3)no2)C(C)C)cc1 [I-52]", "DC50": "< 0.1 µM"}
{"COMPOUND": "Cc1ncsc1-c1ccc(CNC(=O)[C@@H]2C[C@@H](O)CN2C(=O)C(c2cc(OCCCOCCCN3CCC(Cn4cc(-c5cc(-c6ccccc6O)nnc5N)cn4)CC3)no2)C(C)C)cc1 (stereo partly drawn) [I-21]", "DC50": "> 1 µM"}
{"COMPOUND": "Cc1ncsc1-c1ccc(C2(NC(=O)[C@@H]3C[C@@H](O)CN3C(=O)[C@@H](NC(=O)[C@H]3CC4(C3)C[C@H](N3CCC(c5cnc(N6C7CCC6CN(c6cc(-c8ccccc8O)nnc6N)C7)nc5)CC3)C4)C(C)(C)C)CC2)cc1 (single isomer, unassigned) [I-4]", "DC50": "0.1 to 0.5 µM"}
{"COMPOUND": "Cc1ncsc1-c1ccc(CNC(=O)[C@@H]2C[C@@H](O)CN2C(=O)C(c2cc(N3CCC(CCCN4CCC(c5cnc(N6C7CCC6CN(c6cc(-c8ccccc8O)nnc6N)C7)nc5)CC4)CC3)no2)C(C)C)cc1 (stereo partly drawn) [I-64]", "DC50": "< 0.1 µM"}
{"COMPOUND": "Cc1ncsc1-c1ccc(C2(NC(=O)[C@@H]3C[C@@H](O)CN3C(=O)[C@@H](NC(=O)[C@H]3CC4(C3)C[C@H](N3CCC(c5cnc(N6C7CCC6CN(c6cc(-c8ccccc8O)nnc6N)C7)nc5)CC3)C4)C(C)(C)C)CC2)cc1 (single isomer, unassigned) [I-3]", "DC50": "< 0.1 µM"}
{"COMPOUND": "Cn1nccc1-c1ccc(CNC(=O)[C@@H]2C[C@@H](O)CN2C(=O)[C@@H](NC(=O)[C@H]2CC[C@H](c3cnc(N4C5CCC4CN(c4cc(-c6ccccc6O)nnc4N)C5)nc3)CC2)C(C)(C)C)cc1 [I-68]", "DC50": "< 0.1 µM"}

----------
Biological target: SMARCA2 (Homo sapiens)
Experiment: MSD SMARCA2 degradation in A549 cell line
Format: cell-based
Set-up: endogenous in cells
Settings: A549, A549 cells, 24 h
Procedure: Example 53. MSD SMARCA2 Degradation in A549 Cell Line Cells were seeded into 96-well plates (A549 cells: 2×10^4 cells/well/100 ul media) abd incubated overnight. […] The MSD plate was washed three times with 150 ul/well of TBST and 150 ul/well of 2×MSD reading buffer diluted from 4× (MSD, R92TC-2) with water was added. Lastly, the MSD instrument was read. […]

{"COMPOUND": "Cc1ncsc1-c1ccc(CNC(=O)[C@@H]2C[C@H](O)CN2C(=O)[C@@H](NC(=O)[C@H]2CC3(C2)C[C@H](N2CCC(c4cnc(N5C6CCC5CN(c5cc(-c7ccccc7O)nnc5N)C6)nc4)CC2)C3)C(C)(C)C)cc1 (stereo partly shown)", "SYSTEM": "SMARCA2 (Homo sapiens)", "Dmax": "< 50%"}
{"COMPOUND": "Cc1ncsc1-c1ccc(CNC(=O)[C@@H]2C[C@@H](O)CN2C(=O)[C@@H](NC(=O)C2CC3(C2)CC(N2CCC(Oc4cc(N5C6CCC5CN(c5cc(-c7ccccc7O)nnc5N)C6)ccn4)CC2)C3)C(C)(C)C)cc1 (stereo partly shown)", "SYSTEM": "SMARCA2 (Homo sapiens)", "Dmax": "70 to 90%"}
{"COMPOUND": "Cc1ncsc1-c1ccc(CNC(=O)[C@@H]2C[C@@H](O)CN2C(=O)[C@@H](NC(=O)[C@H]2CCC3(CC2)C[C@H](N2CCC(c4cnc(N5C6CCC5CN(c5cc(-c7ccccc7O)nnc5N)C6)nc4)CC2)C3)C(C)(C)C)cc1 (stereo partly shown)", "SYSTEM": "SMARCA2 (Homo sapiens)", "Dmax": "70 to 90%"}
{"COMPOUND": "Cc1ncsc1-c1ccc(CNC(=O)[C@@H]2C[C@@H](O)CN2C(=O)C(c2cc([C@H]3CC[C@@H](N4CCC(c5cnc(N6C7CCC6CN(c6cc(-c8ccccc8O)nnc6N)C7)nc5)CC4)CC3)no2)C(C)C)cc1 (stereo partly shown)", "SYSTEM": "SMARCA2 (Homo sapiens)", "Dmax": "> 90%"}

----------
Molecular target: SMARCA2 (Homo sapiens, UniProt P51531)
Assay: SMARCA2 Western blot MV4-11 degradation
Assay type: cell-based
Design: SMARCA2 and SMARCA4 protein degradation in MV4-11 cells; endogenous in cells; host or cells: MV4-11
Settings: MV4-11 cells, 24 h; read-out: SMARCA2 MSD MV411 degradation 24 h: Mean external-Abs DC50
Known DC50 of a selection of compounds

{"COMPOUND": "Cc1ncsc1-c1ccc(CNC(=O)[C@@H]2C[C@@H](O)CN2C(=O)[C@@H](NC(=O)[C@H]2CC3(C2)C[C@H](N2CCC(c4ccc(N5C6CCC5CN(c5cc(-c7ccccc7O)nnc5N)C6)cc4)CC2)C3)C(C)(C)C)cn1 (stereo partly drawn) [I-28]", "DC50": "100 to 500 nM"}
{"COMPOUND": "Cc1ncsc1-c1ccc(CNC(=O)[C@@H]2C[C@@H](O)CN2C(=O)C(c2cc(O[C@H]3CC[C@H](N4CCC(c5cnc(N6C7CCC6CN(c6cc(-c8ccccc8O)nnc6N)C7)nc5)CC4)CC3)no2)C(C)C)cc1 (stereo partly drawn) [I-17]", "DC50": "< 100 nM"}
{"COMPOUND": "Cc1ncsc1-c1ccc(CNC(=O)[C@@H]2C[C@@H](O)CN2C(=O)[C@@H](NC(=O)N2CC3(CC(N4CCC(c5cnc(N6C7CCC6CN(c6cc(-c8ccccc8O)nnc6N)C7)nc5)CC4)C3)C2)C(C)(C)C)cc1 [I-58]", "DC50": "< 100 nM"}
{"COMPOUND": "Cc1ncsc1-c1ccc(CNC(=O)[C@@H]2C[C@@H](O)CN2C(=O)[C@H](c2cc(N3CCC(CCN4CCC(c5cnc(N6C7CCC6CN(c6cc(-c8ccccc8O)nnc6N)C7)nc5)CC4)CC3)no2)C(C)C)cc1 [I-63]", "DC50": "< 100 nM"}
{"COMPOUND": "Cc1ncsc1-c1ccc(CNC(=O)[C@@H]2C[C@@H](O)CN2C(=O)[C@H](c2cc(OCCCN3CCC(c4cnc(N5C6CCC5CN(c5cc(-c7ccccc7O)nnc5N)C6)nc4)CC3)no2)C(C)C)cc1 [I-52]", "DC50": "< 100 nM"}
{"COMPOUND": "Cc1nccn1-c1ccc(CNC(=O)[C@@H]2C[C@@H](O)CN2C(=O)[C@@H](NC(=O)[C@H]2CC3(C2)C[C@H](N2CCC(c4cnc(N5C6CCC5CN(c5cc(-c7ccccc7O)nnc5N)C6)nc4)CC2)C3)C(C)(C)C)cc1 (stereo partly drawn) [I-33]", "DC50": "100 to 500 nM"}
{"COMPOUND": "Cc1ncsc1-c1ccc(CNC(=O)[C@@H]2C[C@@H](O)CN2C(=O)[C@@H](NC(=O)[C@H]2CC3(C2)C[C@H](N2CCN(c4cnc(N5C6CCC5CN(c5cc(-c7ccccc7O)nnc5N)C6)nc4)CC2)C3)C(C)(C)C)cc1 (single isomer, unassigned) [I-8]", "DC50": "< 100 nM"}
{"COMPOUND": "Cc1ncsc1-c1ccc(CNC(=O)[C@@H]2C[C@@H](O)CN2C(=O)[C@H](c2cc(OCCCCN3CCC(c4cnc(N5C6CCC5CN(c5cc(-c7ccccc7O)nnc5N)C6)nc4)CC3)no2)C(C)C)cc1 [I-57]", "DC50": "< 100 nM"}
{"COMPOUND": "Cc1ncsc1-c1ccc(CNC(=O)[C@@H]2C[C@@H](O)CN2C(=O)C(c2cc(O[C@H]3CC[C@@H](N4CCC(c5cnc(N6C7CCC6CN(c6cc(-c8ccccc8O)nnc6N)C7)nc5)CC4)CC3)no2)C(C)C)cc1 (stereo partly drawn) [I-18]", "DC50": "< 100 nM"}

Reference source for all entries: patent US12606568B2
